- experiment notes: small molecules captured by biotinylated probe aFGF2 – biochemical, small-molecule microarray, fluorescence 635/667, stem cell growth factor project, primary screen (AID 1067);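 also: measures binding of biotinylated aFGF2 protein to printed compounds on slides; z-score merges feature fluorescence and signal-to-noise across triplicate slides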
- particulars: higher = more signal
measured endpoint: composite z-score
API note: the answer field is a bare number with no unit suffix.

Supply reported composite z-score belonging to this compound: CN1C(=O)C2C=CC(C(O)c3cccc4ccccc34)N(NC(=O)OC(C)(C)C)C2C1=O (centres undefined)
0.194

Supply reported composite z-score belonging to this compound: `COCCOC(=O)N1C(=O)[C@@]2(c3cc(C#Cc4ccc(OC)cc4)ccc31)[C@H](C(N)=O)[C@H]1C(=O)O[C@H](c3ccccc3)[C@H](c3ccccc3)N1[C@@H]2c1ccc(OCCO)cc1`
0.0014

Supply reported composite z-score belonging to this compound: `CO[C@H]1O[C@H](CO)[C@@H](OC(=O)c2ccc(Br)cc2)[C@@H]2OC(=O)[C@H](Cc3cccc(Br)c3)C/C=C/C[C@@H](Cc3cccc(Br)c3)C(=O)O[C@@H]12`
0.0376

Supply reported composite z-score belonging to this compound: `C[N+](C)(C)CCCCCCNC(=O)[C@@H]1C[C@@H]2C(=O)NCC(=O)N2[C@@H]1c1cccc(OCCO)c1`
-0.125

Supply reported composite z-score belonging to this compound: C[C@H]1NC(=O)C([C@@H](C)OCc2ccccc2)NC(=O)[C@@]23C(=O)N[C@@H](Cc4ccccc4)C2[C@H](C)[C@@]2(C)O[C@H]2C3/C=C/CC/C=C/CNC1=O (some centres undefined)
0.0304

Supply reported composite z-score belonging to this compound: `O=[N+]([O-])c1ccc(C[n+]2ccc(-c3ccc(CO)cc3)cc2)o1`
-0.0266

Supply reported composite z-score belonging to this compound: `CC(C)C[C@@H]1NC(=O)[C@@H]2C[C@H](C(=O)NCCCC[N+](C)(C)C)[C@H](c3cccc(OCCO)c3)N2C1=O`
-0.0784

Supply reported composite z-score belonging to this compound: `C=C(/C(=C/C[C@@H](OC(=O)c1ccncc1)c1cccc(OCCO)c1)c1cc(C(=O)OC)ccc1OC)C(C)C`
-0.0549

Supply reported composite z-score belonging to this compound: `C=C(COC)C(=O)CC[C@H](OC(=O)c1ccccc1-c1ccccc1C(=O)O)c1ccc(OCCO)cc1`
-0.0729

Supply reported composite z-score belonging to this compound: COC(=O)c1ccc(OC)c(/C=C\CC(CCc2ccccc2)OC(C)=O)c1 (centres undefined)
-0.118

Supply reported composite z-score belonging to this compound: C=C(C)[C@@H]1CC=C(C(O)C2C=CC3C(=O)N(C4CCCCC4)C(=O)C3N2Nc2ccc(OC)cc2)CC1 (some centres undefined)
0.156

Supply reported composite z-score belonging to this compound: `COC(=O)[C@@]1(Cc2ccccc2)[C@H]2c3cc(C(=O)N(C)C)n(Cc4ccccn4)c3C[C@H]2CN1C(=O)c1ccccc1`
0.305

Supply reported composite z-score belonging to this compound: `COc1ccccc1CN1C(=O)c2ccccc2[C@@H](C(=O)NCC(C)C)[C@@H]1c1ccc(CO)cc1`
0.0342

Supply reported composite z-score belonging to this compound: `COC(=O)C(CC#Cc1ccc2c(c1)[C@]1(C(=O)N2)[C@H](c2ccccc2OCCO)N2[C@H](c3ccccc3)[C@H](c3ccccc3)OC(=O)[C@H]2[C@@H]1C(=O)Nc1nc2ccccc2s1)C(=O)OC`
0.0563

---

- experiment notes: viability profiling in RPMI8226 myeloma cells – cell-based, resazurin fluorescence, basal, 24 h, PK04 Diversity Set, profiling panel (AID 1180);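 also: RPMI8826 multiple myeloma cell line at 5000 cells per well; test concentration not given here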
- particulars: higher = more signal
Threshold rule: z-score greater than or equal to 0.07 is MET; below that, NOT MET.

The following molecules have reported results that may help.
{"molecule": "COc1ccccc1CN1C(=O)c2ccccc2[C@](Cc2ccccc2I)(C(=O)NCCN2CCOCC2)[C@@H]1c1ccc(CO)cc1", "class label": "NOT MET"}
{"molecule": "CN(C)C(=O)[C@@]1(CCC(=O)OC(C)(C)C)N=C(c2ccc(OCCCO)cc2)O[C@H]1c1ccccc1N=[N+]=[N-]", "class label": "NOT MET"}
{"molecule": "COC(=O)[C@@]1(Cc2ccc(OC)cc2)[C@H]2c3cc(C(=O)N(C)C)n(Cc4cc(C)n(C)n4)c3C[C@H]2CN1C(=O)c1ccccc1", "class label": "NOT MET"}

Can `CCCC[C@H]1OB(O)C[C@H]2C1=C(COc1ccccc1)Cn1c(=O)n(-c3ccccc3)c(=O)n12` be said to have z-score at or above 0.07?
NOT MET

Can `CCC[C@@H]1C[C@@]1(CCC)[C@@H](NC(=O)c1cccs1)c1ccc(Cl)cc1` be said to have z-score at or above 0.07?
MET

Can `[N-]=[N+]=NCc1ccccc1C[C@]1(C(=O)NCCN2CCOCC2)COC(c2ccc(OCCCO)cc2)=N1` be said to have z-score at or above 0.07?
MET

Can `Cc1ccc(S[C@]2(C(=O)NCCN3CCOCC3)CC(=O)N(C3Cc4ccccc4C3)[C@@H]2c2ccc(CO)cc2)cc1` be said to have z-score at or above 0.07?
NOT MET

Can C=C(C)[C@@H]1CC=C(C(O)C2C=CC3C(=O)N(C4CCCCC4)C(=O)C3N2Nc2ccc(OC)cc2)CC1 (some centres not stated) be said to have z-score at or above 0.07?
MET

Can CC(C)c1ccc(NN2C(C(O)c3ccccn3)C=CC3C(=O)N(c4ccccc4)C(=O)C32)cc1 (configuration not stated) be said to have z-score at or above 0.07?
NOT MET

Can `Cc1ccc(N2C(=O)c3ccccc3[C@](C)(C(=O)NC(C)C)[C@@H]2c2ccc(CO)cc2)nc1` be said to have z-score at or above 0.07?
MET

Can `COc1ccccc1CN1C(=O)c2ccccc2[C@@]2(Cc3ccccc3N(C3CC3)C2=O)[C@@H]1c1ccc(CO)cc1` be said to have z-score at or above 0.07?
NOT MET

Can `CCOC(=O)C[C@H]1[C@H](OC(=O)c2cc3ccccc3oc2=O)[C@@H](NC(=O)c2ccc3ccccc3n2)c2cc(OCCCO)ccc2N1C(=O)c1ccc2ccccc2n1` be said to have z-score at or above 0.07?
NOT MET

Can `C=C(COC)C(=O)CC[C@H](OC(=O)c1ccccc1-c1ccccc1C(=O)O)c1ccc(CO)o1` be said to have z-score at or above 0.07?
NOT MET

Can `C[N+](C)(C)CCCCCCNC(=O)[C@H]1C[C@H]2C(=O)N3CCC[C@H]3C(=O)N2[C@H]1c1cccc(OCCO)c1` be said to have z-score at or above 0.07?
NOT MET

Can `O=C1C[C@@](C(=O)NCc2ccccc2)(c2ccc([N+](=O)[O-])cc2)[C@@H](c2ccc(CO)cc2I)N1C1CCCCC1` be said to have z-score at or above 0.07?
MET

Can `C=CCNC(=O)[C@H]1[C@@H]2C(=O)O[C@@H](c3ccccc3)[C@@H](c3ccccc3)N2[C@@H](c2ccc(O)cc2)[C@]12C(=O)N(C(=O)OCCOC)c1ccc(C#CC3(O)CCCCCC3)cc12` be said to have z-score at or above 0.07?
MET

Can `O=C1c2ccccc2[C@](Cc2ccccc2I)(C(=O)NCC(F)(F)F)[C@H](c2ccc(CO)cc2)N1Cc1ccccc1` be said to have z-score at or above 0.07?
MET

Can `O=C1O[C@H](c2ccccc2)[C@H](c2ccccc2)N2[C@H]1[C@@H](C(=O)N1CCN(c3ncccn3)CC1)[C@]1(C(=O)Nc3ccc(C#CCCO)cc31)[C@H]2c1ccc(OCCO)cc1` be said to have z-score at or above 0.07?
MET

Can `CC1=C2[C@@H](CCc3ccccc3)OB(O)C[C@@H]2[C@@H]2C(=O)C=CC(=O)[C@@H]2C1` be said to have z-score at or above 0.07?
NOT MET

Can `COc1ccc([Si](C)(C)[C@@H]2[C@@H](CCO)O[C@]3(C(=O)N(Cc4ccc(N5C(=O)c6ccccc6Oc6ccccc65)cc4)c4ccccc43)[C@H]2C)cc1` be said to have z-score at or above 0.07?
NOT MET

Can `CN(C)C(=O)[C@]1(Cc2ccccc2N=[N+]=[N-])N=C(c2ccc(OCCCO)cc2)O[C@@H]1c1ccccc1CN=[N+]=[N-]` be said to have z-score at or above 0.07?
NOT MET

Can `O=C1O[C@@H](c2ccccc2)[C@@H](c2ccccc2)N2[C@@H](c3ccc(O)cc3)[C@]3(C(=O)Nc4ccc(C#CC5(O)CCCCCC5)cc43)[C@@H](C(=O)N3CCN(c4ncccn4)CC3)[C@H]12` be said to have z-score at or above 0.07?
MET

Can CC(C)CCC[C@@H](C)[C@H]1CC[C@@]2(C)C3=C(CC[C@]12C)[C@@]1(C)CC[C@H](OC(=O)c2ccc(N)cc2)C(C)(C)C1CC3 (some centres not stated) be said to have z-score at or above 0.07?
MET

Can C=CCC(OC(C)=O)[C@@H]1[C@@H](N(Cc2ccc(-c3cccc(C(F)(F)F)c3)o2)C(=O)c2cccc3ccccc23)c2cc(OCCCO)ccc2N1C(=O)c1ccc(-c2ccccc2)cc1 (some centres not stated) be said to have z-score at or above 0.07?
NOT MET

Can `C=CCNC(=O)[C@@H]1[C@H]2C(=O)O[C@H](c3ccccc3)[C@H](c3ccccc3)N2[C@H](c2ccc(O)cc2)[C@@]12C(=O)Nc1ccc(C#CCCO)cc12` be said to have z-score at or above 0.07?
MET

Can `C=C(CCCC)/C(=C/C[C@H](OC(=O)c1ccncc1)c1ccc(CO)o1)c1cc(C(=O)OC)ccc1OC` be said to have z-score at or above 0.07?
NOT MET
